Where do these numbers come from? They come from ChEMBL document CHEMBL1153286.

Experiment: Oral bioavailability in rat at 5 mg/kg, po
Assay type: ADME, organism-based
Conditions: in vivo
MEASURED_QUANTITY: bioavailability (%)
Lab book: enter the figure in %, no units written.

Ask: I would be grateful if you could share the reported bioavailability for CC1CCC(NC(=O)NS(=O)(=O)c2ccc(CCNS(=O)(=O)c3ccc(Br)cc3)cc2)CC1 (stereo unspecified) .
Reply: 52.7

----------
Test: Effect on insulin release in rat pancreatic cells at 100 umol/L after 6 hrs by radioimmunoassay
Format: functional
Each record here notes measured Activity.
Field format: number, assumed uIU/ml, no unit text.

These recorded examples may help you get a feel for the data.
COc1cc(S(=O)(=O)NCCc2ccc(S(=O)(=O)NC(=O)NC3CCC(C)CC3)cc2)ccc1NC(C)=O (stereo not drawn) ... 24.83
O=C(NC1CCCCC1)NS(=O)(=O)c1ccc(CCNS(=O)(=O)c2ccccc2)cc1 ... 31.29

// below: Activity requested for another compound
Ask: Consider the compound Cc1ccc(NC(=S)NS(=O)(=O)c2ccc(CCNS(=O)(=O)c3ccccc3)cc2)cc1 and give its measured Activity.
Reply: 24.97
